Origin of measurements: PubChem BioAssay

assay: MM1S myeloma cell viability, profiling panel, resazurin fluorescence, basal, 24 h, PK04 Diversity Set (AID 1174); conditions: higher = more signal, called active from +8 up or from −8 down;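 also: MM1S multiple myeloma cell line; test concentration not given here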
measured quantity: z-score

• COc1ccc([Si](C)(C)[C@@H]2[C@@H](CCn3cc([C@H](O)c4ccccc4)nn3)O[C@]3(C(=O)N(Cc4ccc(N5CCOC5=O)cc4)c4ccccc43)[C@H]2C)cc1 = -0.806
• C=C(/C(=C/C[C@@H](OC(=O)c1ccncc1)c1ccc(OCCO)cc1)c1cc(C(=O)OC)ccc1OC)C(C)C = 0.288
• COc1cc2c(cc1OC)CN(C(=O)[C@H]1[C@@H]3C(=O)O[C@@H](c4ccccc4)[C@@H](c4ccccc4)N3[C@@H](c3ccc(OCCO)cc3)[C@]13C(=O)Nc1ccc(C#CC4(O)CCCCCC4)cc13)CC2 = 0.122
• C=CCOC(=O)[C@@H]1[C@H]2C(=O)O[C@H](c3ccccc3)[C@H](c3ccccc3)N2[C@H](c2ccc(OCCOC(=O)[C@H]3C[C@H]4C(=O)N[C@@H](CCCCN(C)C)C(=O)N4[C@H]3c3cccc(OCCO)c3)cc2)[C@@]12C(=O)Nc1ccc(I)cc12 = -0.302
• CN(C)CCCCNC(=O)[C@H]1C[C@H]2C(=O)N3CCC[C@H]3C(=O)N2[C@H]1c1ccc(O)cc1 = 0.949
• COc1ccc(CCNC(=O)[C@@]2(Sc3ccc(C)cc3)CC(=O)N(Cc3cc(C(F)(F)F)cc(C(F)(F)F)c3)[C@@H]2c2ccc(CO)cc2I)cc1 = -2.46
• C[C@H]1ON(c2ccc(C(=O)OC(C)(C)C)cc2)[C@@H](c2ccc(O)cc2)[C@@H]1C(=O)N1C(=O)OC[C@@H]1c1ccccc1 = -0.263
• C=C(COC)/C(=C/C[C@@H](OC(=O)c1ccncc1)c1ccc(CO)o1)c1cnc2ccccc2c1 = 0.372
• O=C1O[C@@H](c2ccccc2)[C@@H](c2ccccc2)N2[C@@H](c3ccc(O)cc3)[C@]3(C(=O)Nc4ccc(C#CC5=CCCCC5)cc43)[C@@H](C(=O)N3CCN(c4ncccn4)CC3)[C@H]12 = -0.0922
• C=CCOC(=O)[C@@H]1[C@H]2C(=O)O[C@H](c3ccccc3)[C@H](c3ccccc3)N2[C@H](c2ccc(OCCOC(=O)[C@H]3C[C@H]4C(=O)N[C@@H](CCCC[N+](C)(C)C)C(=O)N4[C@H]3c3ccc(O)cc3)cc2)[C@@]12C(=O)Nc1ccc(I)cc12 = -0.706
• C=C(/C=C/CNS(=O)(=O)c1ccc(C)cc1)[C@H](O)[C@H]1CCCN1S(=O)(=O)c1ccccc1[N+](=O)[O-] = 0.113
• C=CCOC(=O)[C@H]1[C@@H]2C(=O)O[C@@H](c3ccccc3)[C@@H](c3ccccc3)N2[C@@H](c2ccc(OCCOC(=O)[C@H]3C[C@H]4C(=O)N[C@@H](Cc5ccccc5)C(=O)N4[C@H]3c3cccc(OCCO)c3)cc2)[C@]12C(=O)Nc1ccc(I)cc12 = -0.446
• COCC(=C=CC[C@H](O)c1ccc(OCCO)cc1)C[C@H](O)COCc1ccccc1 = 1.18
• C=CCOC(=O)[C@@H]1[C@H]2C(=O)O[C@H](c3ccccc3)[C@H](c3ccccc3)N2[C@H](c2ccc(OCCOC(=O)[C@H]3C[C@H]4C(=O)N[C@@H](CCCCNC(C)=O)C(=O)N4[C@H]3c3cccc(OCCO)c3)cc2)[C@@]12C(=O)Nc1ccc(I)cc12 = -0.565
• NC(N)=NCc1cn(CCc2c[nH]c3ccccc23)nn1 = -0.237
• COC(=O)C1(Cc2ccccc2)C=C2C(=C(C(C)C)C(=O)C2C)CN1 (stereo unspecified) = -2.2
• COc1cc(CO)cc(I)c1O[C@H]1C=C(C(=O)NCCO)C[C@@H](N(CC2CCCCC2)C(=O)c2ccc(C(F)(F)F)cc2)[C@@H]1O = -0.327
• O=C1OCCC=C[C@H]2OC34C=CCN(c5ccc(Cl)cc5)C(=O)[C@H]3N(CCCCCO)C(=O)[C@@H]4C12 (stereo partly specified) = 0.89
• Cc1ccc(S[C@]2(C(=O)O)CC(=O)N(Cc3ccccc3Cl)[C@@H]2c2ccc(CO)cc2)cc1 = -0.465
• COCC(=C=CC[C@H](O)c1cccc(OCCO)c1)C[C@H](O)c1ccccn1 = 0.959
• O=c1cccc(-c2ccc(C(F)(F)F)cc2)o1 = 0.0889
• O=C1NC(=O)C2C1C=CC(C(O)c1cc(C(F)(F)F)cc(C(F)(F)F)c1)N2Nc1ccc(Cl)cc1Cl (stereo unspecified) = -1.99
• O=C(NC1CC1)[C@@H]1c2ccccc2C(=O)N(Cc2ccccc2)[C@H]1c1ccc(CO)cc1 = -0.556
• CON(C)C(=O)C=C1C[C@@H](c2cccc(Cl)c2)O[C@@H](c2cccc(Cl)c2)O1 = 0.0896
• C[C@H]1C2=C3C(CC[C@H]4C(OCc5ccc(F)cc5C(F)(F)F)OC[C@](C)([C@@H]34)N(C(=O)OC(C)(C)C)C2)C2COC(=O)OCC21 (stereo partly specified) = -1.43
• C=CCN1Cc2ccccc2C[C@@]2(N=C(c3ccc(OCCCO)cc3)O[C@H]2c2ccccc2)C1=O = -3.09
